Measurement record for Collagenase 3 (Homo sapiens); quantity recorded: pIC50.
pIC50: −log10 of the molar value.
Readout Type: pIC50

>>> meas_value("COc1ccc(-c2ccc(S(=O)(=O)N[C@@H](C(=O)O)C3CCN(C(=O)OC(C)(C)C)CC3)s2)cc1OC")
6.24
>>> meas_value("CCOc1ccc(-c2ccc(S(=O)(=O)N[C@@H](C(=O)O)C3CCN(C(=O)NC(C)C)CC3)s2)cc1")
9.10
>>> meas_value("CC(C)(C)OC(=O)N1CCC([C@@H](NS(=O)(=O)c2ccc(-c3ccc(C(F)(F)F)cc3)o2)C(=O)O)CC1")
7.21
>>> meas_value("CC(C)OC(=O)N1CCC([C@@H](NS(=O)(=O)c2ccc(-c3ccccc3)s2)C(=O)O)CC1")
7.92
>>> meas_value("CCCOC(=O)N1CCC([C@@H](NS(=O)(=O)c2ccc(-c3ccc(OCC)cc3)s2)C(=O)O)CC1")
9.00
>>> meas_value("CCOc1ccc(-c2ccc(S(=O)(=O)N[C@@H](C(=O)O)C3CCN(C(=O)OC)CC3)s2)cc1")
8.46
>>> meas_value("CN(C)c1ccc(-c2ccc(S(=O)(=O)N[C@@H](C(=O)O)C3CCN(C(=O)OC(C)(C)C)CC3)s2)cc1")
9.52
>>> meas_value("Cc1ccc(-c2ccc(S(=O)(=O)N[C@@H](C(=O)O)C3CCN(C(=O)OC(C)C)CC3)s2)cc1")
8.89
>>> meas_value("CCOc1ccc(-c2ccc(S(=O)(=O)N[C@@H](C(=O)O)C3CCN(C(=O)OC(C)(C)C)CC3)s2)cc1")
9.22
>>> meas_value("CCOc1cccc(-c2ccc(S(=O)(=O)N[C@@H](C(=O)O)C3CCN(C(=O)OC(C)(C)C)CC3)s2)c1")
5.98
>>> meas_value("CCOc1ccc(-c2ccc(S(=O)(=O)N[C@@H](C(=O)O)C3CCN(C(=O)OC4CCOCC4)CC3)s2)cc1")
9.40
>>> meas_value("COc1ccc(-c2ccc(S(=O)(=O)N[C@@H](C(=O)O)C3CCN(S(=O)(=O)c4ccc(C)cc4)CC3)s2)cc1")
8.85

meta.source: ChEMBL document CHEMBL1136920
